Assay: Log P by shaking flask method (n-octanol/water)
Type: physicochemical
Details: pH 7, 37 °C, octanol/ddH2O, 4 h, read-out: Log P/D Value O/W (pH 7.0)
experimental readout: logP at 4 h

[
  {
    "compound": "CC(C)=C/C=C/[C@H](C)[C@H]1CC[C@]2(C)C[C@@H]3C(C)=CC(=O)[C@H]3/C(C=O)=C\\C[C@@H]12 [MHO7, 6-epi-ophiobolin G]",
    "recorded measurement": 2.55
  }
]

----------
Assay: Tissue distribution after single oral dose
Type: in vivo, mice
Conditions: KM, mouse, lung; 4 h; oral 500 mg·kg^−1, female mice; read-out: Concentration in Lung

[
  {
    "compound": "CC(C)=C/C=C/[C@H](C)[C@H]1CC[C@]2(C)C[C@@H]3C(C)=CC(=O)[C@H]3/C(C=O)=C\\C[C@@H]12 [MHO7, 6-epi-ophiobolin G]",
    "unit name": "ng/g",
    "concentration at 4 h": 1060
  }
]

----------
Experiment: Plasma pharmacokinetics after single oral dose
Format: in vivo
Conditions: female, KM, mouse, plasma, po, 500 mg/kg, mice plasma, single oral 500 mg·kg^−1, female mice
Method: Ninety female KM mice of 8–10 weeks of age (20–22 g) were divided randomly into 15 groups, and, after fasting for 12 h, the mice in other experiments were oral administrated at the dose of 500 mg·kg^−1 bw. […] MHO7 levels in plasma were quantified by HPLC–MS/MS. The calibration curve was constructed by plotting the peak area ratio of MHO7 to the internal standard and the linearity was determined by weighted (1/x) linear regression analysis. […]
experimental readout: Tmax

[
  {
    "molecule": "CC(C)=C/C=C/[C@H](C)[C@H]1CC[C@]2(C)C[C@@H]3C(C)=CC(=O)[C@H]3/C(C=O)=C\\C[C@@H]12 [MHO7, 6-epi-ophiobolin G]",
    "recorded measurement": "~8 h"
  }
]
